test system: PC-3; experiment: Cytotoxicity against human PC3 cells; type: functional
Binary call on TGI: condition met from 1000 nM upward, condition not met beneath that.

Item "C/C=C1\NC(=O)[C@H](Cc2ccccc2)NC(=O)[C@@H](C(C)C)NC(=O)[C@@H]([C@@H](C)CC)NC(=O)[C@H](NC(=O)[C@H](NC(=O)[C@H](CCCNC(=O)c2cc3ccc(N(CC)CC)cc3oc2=O)NC(=O)[C@H]2CCCN2C(=O)[C@H](NC(=O)[C@@H](NC(=O)[C@@H](NC(=O)[C@H](NC(=O)CCCC(C)C)C(C)C)[C@@H](C)O)C(C)C)C(C)C)[C@@H](C)CC)[C@@H](C)OC(=O)[C@H](C(C)C)NC1=O" with TGI of 1000 nM or above?
condition met

Item "CC(=O)O[C@H]1C(=O)[C@@]2(C)[C@H]([C@H](OC(=O)c3ccccc3)[C@]3(O)C[C@H](OC(=O)[C@H](O)[C@@H](NC(=O)c4ccccc4)c4ccccc4)C(C)=C1C3(C)C)[C@]1(OC(C)=O)CO[C@@H]1C[C@@H]2O" with TGI of 1000 nM or above?
condition met

Item C/C=C1\NC(=O)[C@H](Cc2ccccc2)NC(=O)[C@@H](C(C)C)NC(=O)[C@@H]([C@H](C)CC)NC(=O)[C@H](NC(=O)[C@H](NC(=O)[C@H](CCCN)NC(=O)[C@H]2CCCN2C(=O)[C@H](NC(=O)[C@@H](NC(=O)[C@@H](NC(=O)[C@H](NC(=O)CCCC(C)C)C(C)C)[C@@H](C)O)C(C)C)C(C)C)[C@H](C)CC)[C@H](C)OC(=O)[C@H](C(C)C)NC1=O [KAHALALIDE F] with TGI of 1000 nM or above?
condition not met

Item "C/C=C1\NC(=O)[C@H](Cc2ccccc2)NC(=O)[C@@H](C(C)C)NC(=O)[C@@H]([C@@H](C)CC)NC(=O)[C@H](NC(=O)[C@H](NC(=O)[C@H](CCCNCc2cccs2)NC(=O)[C@H]2CCCN2C(=O)[C@H](NC(=O)[C@@H](NC(=O)[C@@H](NC(=O)[C@H](NC(=O)CCCC(C)C)C(C)C)[C@@H](C)O)C(C)C)C(C)C)[C@@H](C)CC)[C@@H](C)OC(=O)[C@H](C(C)C)NC1=O" with TGI of 1000 nM or above?
condition not met

Item "C/C=C1\NC(=O)[C@H](Cc2ccccc2)NC(=O)[C@@H](C(C)C)NC(=O)[C@@H]([C@@H](C)CC)NC(=O)[C@H](NC(=O)[C@H](NC(=O)[C@H](CCCNCc2ccc(F)cc2)NC(=O)[C@H]2CCCN2C(=O)[C@H](NC(=O)[C@@H](NC(=O)[C@@H](NC(=O)[C@H](NC(=O)CCCC(C)C)C(C)C)[C@@H](C)O)C(C)C)C(C)C)[C@@H](C)CC)[C@@H](C)OC(=O)[C@H](C(C)C)NC1=O" with TGI of 1000 nM or above?
condition not met
